system: His6-GSK-3β (Homo sapiens)
Construct: made in house; host or cells: Sf21 insect cells (baculovirus)
procedure-details: Inhibition of His6-GSK-3β kinase activity (ELISA-based format, time-resolved fluorescence readout)
Assay type: biochemical
assay-setup: @10 μM
recorded-endpoint: GSK3β % @10 μM (% @10 μM)

                                   compound  recorded_endpoint  unit_info  recorded_value
0  N#Cc1ccc2c(c1)C(c1nc(NCCc3ccncc3)nc3c1CCC3)C(=O)N2 (stereo not shown) [Example 345]     GSK3β % @10 μM   % @10 μM              67
1  CCCCCn1cc2c(C3C(=O)Nc4ccc(C#N)cc43)nc(NC)nc2n1 (stereo not shown) [Example 294]     GSK3β % @10 μM   % @10 μM              70
2  CCOCCNc1nc2c(c(C3C(=O)Nc4ccc(C#N)cc43)n1)CCC2 (stereo not shown) [Example 344]     GSK3β % @10 μM   % @10 μM              69
3  CC(C)CNc1nc(C2C(=O)Nc3ccc(C(F)(F)F)cc32)c2cn(C3CCCC3)nc2n1 (stereo not shown) [Example 249]     GSK3β % @10 μM   % @10 μM              52

* * *

system: His6-GSK-3β (Homo sapiens, UniProt P49841)
Construct: made in house; host or cells: Sf21 insect cells (baculovirus)
Sequence (P49841 2-419): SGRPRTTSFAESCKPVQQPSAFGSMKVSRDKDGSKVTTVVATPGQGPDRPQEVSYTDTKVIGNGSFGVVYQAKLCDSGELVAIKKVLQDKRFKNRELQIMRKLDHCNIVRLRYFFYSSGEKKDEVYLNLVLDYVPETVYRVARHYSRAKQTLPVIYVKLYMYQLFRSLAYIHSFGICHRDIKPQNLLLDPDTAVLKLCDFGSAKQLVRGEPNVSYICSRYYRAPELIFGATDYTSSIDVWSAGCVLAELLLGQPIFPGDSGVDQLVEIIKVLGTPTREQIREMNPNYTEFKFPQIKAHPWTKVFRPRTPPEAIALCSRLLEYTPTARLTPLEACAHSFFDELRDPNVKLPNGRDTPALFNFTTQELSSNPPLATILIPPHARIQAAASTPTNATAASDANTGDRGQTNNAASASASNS
procedure-details: Inhibition of His6-GSK-3β kinase activity (ELISA-based format, time-resolved fluorescence readout)
Assay type: biochemical
assay-setup: class symbols; read-out: GSK3β IC50
pIC50: −log10 of the molar value. Where a name gives a salt, the structure may show the parent alone.
recorded-endpoint: pIC50

Lookup: Please report the recorded pIC50 for O=C1Nc2ccc(Br)cc2C1c1ncnc2c1cnn2C1CCCC1 (centres unmarked) .
Found: < 5.00

Lookup: Please report the recorded pIC50 for CNCCNc1nc(C2C(=O)Nc3ccc(Br)cc32)c2cn(C)nc2n1 (centres unmarked) [Example 360, hydrochloride salt] .
Found: 5.52 to 6.52

Lookup: Please report the recorded pIC50 for CCCn1cc2c(C3C(=O)Nc4ccc(C#N)cc43)nc(NCCc3ccccn3)nc2n1 (centres unmarked) .
Found: > 6.52

Lookup: Please report the recorded pIC50 for N#Cc1ccc2c(c1)C(c1nc(O)nc3nn(C4CCCC4)cc13)C(=O)N2 (centres unmarked) .
Found: > 6.52

Lookup: Please report the recorded pIC50 for N#Cc1ccc2c(c1)C(c1nc(N3CCOCC3)nc3nn(C4CCCC4)cc13)C(=O)N2 (centres unmarked) .
Found: > 6.52

Lookup: Please report the recorded pIC50 for CCOCCn1cc2c(C3C(=O)Nc4ccc(Br)cc43)nc(Cl)nc2n1 (centres unmarked) .
Found: < 5.00

Lookup: Please report the recorded pIC50 for CCOCCn1cc2c(C3C(=O)Nc4ccc(Cl)cc43)nc(NC[C@@H](C)O)nc2n1 (some centres unmarked) .
Found: > 6.52

Lookup: Please report the recorded pIC50 for COCCn1cc2c(C3C(=O)Nc4ccc(Br)cc43)nc(Cl)nc2n1 (centres unmarked) .
Found: > 6.52

* * *

system: CDK5/GST-p25 (Homo sapiens)
Construct: The final construct, encoding for full-length human CDK5; made in house; host or cells: Sf21 insect cells (baculovirus co-infection)
Sequence (Q00535 whole entry): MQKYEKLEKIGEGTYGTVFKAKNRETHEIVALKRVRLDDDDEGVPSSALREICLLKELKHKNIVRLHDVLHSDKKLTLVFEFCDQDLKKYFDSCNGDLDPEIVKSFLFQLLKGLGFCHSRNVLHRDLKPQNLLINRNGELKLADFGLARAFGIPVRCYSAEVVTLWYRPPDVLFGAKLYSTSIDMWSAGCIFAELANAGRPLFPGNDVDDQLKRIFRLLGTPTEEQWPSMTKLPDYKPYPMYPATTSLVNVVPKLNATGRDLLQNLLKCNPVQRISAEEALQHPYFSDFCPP
Sequence (Q15078 108-307 partner limits assumed): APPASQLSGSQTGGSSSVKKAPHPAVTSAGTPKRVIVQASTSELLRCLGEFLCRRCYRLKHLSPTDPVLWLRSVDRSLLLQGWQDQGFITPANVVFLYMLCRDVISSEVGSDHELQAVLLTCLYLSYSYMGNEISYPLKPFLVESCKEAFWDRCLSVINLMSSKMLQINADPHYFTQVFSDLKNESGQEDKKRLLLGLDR
procedure-details: Inhibition of CDK5/GST-p25 kinase activity (ELISA with time-resolved fluorescence readout)
Type: biochemical
assay-setup: class symbols
pIC50: −log10 of the molar value.
# pIC50 values compiled below

Sample answers from the record:
>>> df
                                   molecule  recorded_value
0  CNCCCNc1nc(C2C(=O)Nc3ccc(Br)cc32)c2cn(CCOC)nc2n1 (stereo not drawn) [Example 226]          > 6.52
1  O=C1Nc2cc(Cl)ccc2C1c1ncnc2nn(C3CCCC3)cc12 (stereo not drawn) [Example 32]    5.52 to 6.52
2  CCCn1cc2c(C3C(=O)Nc4ccc(C#N)cc43)ncnc2n1 (stereo not drawn) [Example 96]          > 6.52

Lookup: Please report the recorded pIC50 for COCCCNc1nc(C2C(=O)Nc3ccc(C#N)cc32)c2cn(C3CCCC3)nc2n1 (stereo not drawn) [Example 175] .
Found: > 6.52

Lookup: Please report the recorded pIC50 for CC(C)n1cc2c(C3C(=O)Nc4ccc(Cl)cc43)ncnc2n1 (stereo not drawn) [Example 381] .
Found: > 6.52

Lookup: Please report the recorded pIC50 for CCCn1cc2c(C3C(=O)Nc4ccc(Br)cc43)nc(NC[C@H]3CCCO3)nc2n1 (stereo partly drawn) [Example 366] .
Found: > 6.52

Lookup: Please report the recorded pIC50 for CCCOCCNc1nc2c(c(C3C(=O)Nc4ccc(C#N)cc43)n1)CCC2 (stereo not drawn) [Example 343] .
Found: < 5.00

Lookup: Please report the recorded pIC50 for O=C1Nc2ccc(F)cc2C1c1ncnc2nn(C3CCCC3)cc12 (stereo not drawn) [Example 40] .
Found: > 6.52

Lookup: Please report the recorded pIC50 for N#Cc1ccc2c(c1)C(c1ncnc3nn(C4CCCC4)cc13)C(=O)N2 (stereo not drawn) [Example 30] .
Found: > 6.52

Lookup: Please report the recorded pIC50 for CC(C)Cn1cc2c(C3C(=O)Nc4ccc(Br)cc43)nc(NCCN3CCOCC3)nc2n1 (stereo not drawn) [Example 264] .
Found: > 6.52

Lookup: Please report the recorded pIC50 for CNc1nc(C2C(=O)Nc3ccc(C#N)cc32)c2cn(C3CCCC3)nc2n1 (stereo not drawn) [Example 115] .
Found: > 6.52

Lookup: Please report the recorded pIC50 for O=C1Nc2ccc(C(F)(F)F)cc2C1c1ncnc2c1cnn2C1CCCCC1 (stereo not drawn) [Example 71] .
Found: < 5.00

Lookup: Please report the recorded pIC50 for C=CCNc1nc(C2C(=O)Nc3ccc(C#N)cc32)c2cn(C3CCCC3)nc2n1 (stereo not drawn) [Example 149] .
Found: > 6.52

* * *

system: His6-GSK-3β (Homo sapiens, UniProt P49841)
Construct: made in house; host or cells: Sf21 insect cells (baculovirus)
procedure-details: Inhibition of His6-GSK-3β kinase activity (ELISA-based format, time-resolved fluorescence readout)
Assay type: biochemical
assay-setup: class symbols; read-out: GSK3β IC50
# IC50 values compiled below

>>> print(df.to_string())
                                   molecule                                    system  recorded_endpoint  recorded_value
0  Cn1cc2c(C3C(=O)Nc4ccc(C#N)cc43)ncnc2n1 (centres unmarked) [Example 84]  His6-GSK-3β (Homo sapiens, UniProt P49841)               IC50  300 to 3000 nM
1  Cl.NCCNc1nc(C2C(=O)Nc3ccc(C(F)(F)F)cc32)c2cn(C3CCCC3)nc2n1 (centres unmarked) [Example 252, hydrochloride salt]  His6-GSK-3β (Homo sapiens, UniProt P49841)               IC50        < 300 nM
2  O=c1[nH]c2ccccc2n1-c1ncnc2nn(C3CCCC3)cc12 [Example 44]  His6-GSK-3β (Homo sapiens, UniProt P49841)               IC50      > 10000 nM
3  O=C1Nc2ccc(C(F)(F)F)cc2C1c1nc(NCCc2ccccn2)nc2nn(C3CCCC3)cc12 (centres unmarked) [Example 247]  His6-GSK-3β (Homo sapiens, UniProt P49841)               IC50        < 300 nM
4  CCCCCn1cc2c(C3C(=O)Nc4ccc(C(F)(F)F)cc43)nc(NCCN)nc2n1 (centres unmarked) [Example 288]  His6-GSK-3β (Homo sapiens, UniProt P49841)               IC50        < 300 nM

Lookup: Please report the recorded IC50 for N#Cc1ccc2c(c1)C(c1nc(NCc3ccccn3)nc3nn(C4CCCC4)cc13)C(=O)N2 (centres unmarked) [Example 123] .
Found: < 300 nM

Lookup: Please report the recorded IC50 for N#Cc1ccc2c(c1)C(c1nc(N(CCO)CCO)nc3nn(C4CCCC4)cc13)C(=O)N2 (centres unmarked) [Example 168] .
Found: < 300 nM

Lookup: Please report the recorded IC50 for N#Cc1ccc2c(c1)C(c1nc(Nc3ccc(N4CCS(=O)(=O)CC4)cc3)nc3nn(C4CCCC4)cc13)C(=O)N2 (centres unmarked) [Example 135] .
Found: < 300 nM

* * *

# pIC50 values compiled below
system: CDK5/GST-p25 (Homo sapiens)
Construct: The final construct, encoding for full-length human CDK5; made in house; host or cells: Sf21 insect cells (baculovirus co-infection)
procedure-details: Inhibition of CDK5/GST-p25 kinase activity (ELISA with time-resolved fluorescence readout)
Assay type: biochemical
assay-setup: class symbols
pIC50: −log10 of the molar value.

In [3]: df
Out[3]:
                                   compound  recorded_endpoint  recorded_value
0  O=C1Nc2ccc(Cl)cc2C1c1ncnc2c1cnn2C1CCCC1 (stereo not drawn)              pIC50          < 5.00
1  CCOCCNc1nc2c(c(C3C(=O)Nc4ccc(Br)cc43)n1)CCC2 (stereo not drawn)              pIC50          < 5.00
2  O=C1Nc2ccc([N+](=O)[O-])cc2C1c1ncnc2nn(C3CCCC3)cc12 (stereo not drawn)              pIC50          > 6.52

Lookup: Please report the recorded pIC50 for CCCn1cc2c(C3C(=O)Nc4ccc(Br)cc43)nc(N[C@@H]3CCNC3)nc2n1 (stereo partly drawn) .
Found: 5.52 to 6.52

Lookup: Please report the recorded pIC50 for CC(C)CNc1nc(C2C(=O)Nc3ccc(C(F)(F)F)cc32)c2cn(C3CCCC3)nc2n1 (stereo not drawn) .
Found: < 5.00

Lookup: Please report the recorded pIC50 for N#Cc1ccc2c(c1)C(c1nc(NN)nc3nn(C4CCCC4)cc13)C(=O)N2 (stereo not drawn) .
Found: 5.52 to 6.52

Lookup: Please report the recorded pIC50 for O=C1Nc2ccc(Br)cc2C1c1nc(Cl)nc2c1CCC2 (stereo not drawn) .
Found: < 5.00

Lookup: Please report the recorded pIC50 for CCCn1cc2c(C3C(=O)Nc4ccc(Br)cc43)nc(Cl)nc2n1 (stereo not drawn) .
Found: < 5.00

Lookup: Please report the recorded pIC50 for CCOCCn1cc2c(C3C(=O)Nc4ccc(Cl)cc43)nc(NCc3ccncc3)nc2n1 (stereo not drawn) .
Found: > 6.52
